molecular target: FAP protein (Homo sapiens, UniProt Q12884); construct: purchased Sinobiological; test: Biacore test of compound affinity to FAP protein; details: Biacore 8K, SA chip, 15° C., 1:1 binding model; read-out: pKD (FAP) (converted)
Numbered stars: 1 amine (or outer) side, 2 acyl side, 3 side chain; on linkers, the order of the positions; unused ones are H or OH. Bridge positions count the residues as written; N and C are the ends. Square brackets hold non-standard residues; d marks the D form. Peptide text beside a SMILES is read from it. * marks the point of attachment. ξ: configuration not given here. NH(CH2)5NHDOTA = O=C(O)CN1CCN(CC(=O)O)CCN(CC(=O)NCCCCCN*)CCN(CC(=O)O)CC1; X2 = O=C(O)CN1CCN(CC(=O)O)CCN(CC(=O)N2CCN(CCCN*)CC2)CCN(CC(=O)O)CC1; Azetidine3carboxylic = O=C(C1CN([*:1])C1)[*:2]; mXylylene = c1cc(C[*:1])cc(C[*:2])c1; Hexanoyl = CCCCCC(=O)*; CO = O=C([*:1])[*:2]; ξP = O=C(O)C1CCCN1; ξC = NC(CS)C(=O)O; NHBu = CCCCN*
MEASURED PARAMETER: Kd

Known Kd results, listed for orientation:
>  <MOLECULE>
CCCCNC(=O)N[C@H]1CSCc2cccc(c2)CSC[C@@H](C(=O)N[C@@H](CCC(=O)NCCCN2CCN(C(=O)CN3CCN(CC(=O)O)CCN(CC(=O)O)CCN(CC(=O)O)CC3)CC2)C(=O)O)NC(=O)[C@H](Cc2ccccc2)NC(=O)[C@H](CCC(N)=O)NC(=O)[C@H]([C@@H](C)O)NC(=O)C2CCCN2C(=O)C2CN(C2)C1=O (stereo partly drawn) [JHDC48] ({NHBu-CO}-C[Azetidine3carboxylic][ξP]TQFCE(X2)-OH; linker 1-7 via mXylylene)

>  <Kd>
10 to 100 nM

$$$$
>  <MOLECULE>
CCCCNC(=O)N[C@H]1CSCc2cccc(c2)CSCC(C(=O)N[C@@H](CCNC(=O)CNC(=O)CN2CCN(CC(=O)O)CCN(CC(=O)O)CCN(CC(=O)O)CC2)C(=O)O)NC(=O)[C@H](CC2CCCCC2)NC(=O)[C@H](CCC(N)=O)NC(=O)[C@H]([C@@H](C)O)NC(=O)[C@@H]2CCCN2C(=O)C2CN(C2)C1=O (stereo partly drawn)

>  <Kd>
< 10 nM

$$$$

If you can, please state the reported Kd value of CCCCCC(=O)N[C@H]1CSCc2cccc(c2)CSCC(C(=O)N[C@@H](CCC(=O)NCCCCCNC(=O)CN2CCN(CC(=O)O)CCN(CC(=O)O)CCN(CC(=O)O)CC2)C(=O)O)NC(=O)[C@H](Cc2ccccc2)NC(=O)[C@H](CCC(N)=O)NC(=O)[C@H]([C@@H](C)O)NC(=O)C2CCCN2C(=O)C2CN(C2)C1=O (stereo partly drawn) [JHDC29] (Hexanoyl-C[Azetidine3carboxylic][ξP]TQF[ξC]E(NH(CH2)5NHDOTA)-OH; linker 1-7 via mXylylene) .
10 to 100 nM

====

biological target: fibroblast activation protein (FAP) (Homo sapiens, UniProt Q12884); assay: Protease inhibition (selectivity) assay, FAP, Z-Gly-Pro-AMC substrate; details: recombinant human FAP 1.2 nM
pIC50: −log10 of the molar value. Numbered stars: 1 amine (or outer) side, 2 acyl side, 3 side chain; on linkers, the order of the positions; unused ones are H or OH. Bridge positions count the residues as written; N and C are the ends. Square brackets hold non-standard residues; d marks the D form. Peptide text beside a SMILES is read from it. * marks the point of attachment. ξ: configuration not given here. X2 = O=C(O)CN1CCN(CC(=O)O)CCN(CC(=O)N2CCN(CCCN*)CC2)CCN(CC(=O)O)CC1; X1 = O=C(O)CN1CCN(CC(=O)O)CCN(CC(=O)CCCN*)CCN(CC(=O)O)CC1; Azetidine3carboxylic = O=C(C1CN([*:1])C1)[*:2]; mXylylene = c1cc(C[*:1])cc(C[*:2])c1; CO = O=C([*:1])[*:2]; ξP = O=C(O)C1CCCN1; NHBu = CCCCN*
MEASURED PARAMETER: pIC50

>  <MOLECULE>
CCCCNC(=O)N[C@H]1CSCc2cccc(c2)CSCC(C(=O)N[C@@H](CCNC(=O)CNC(=O)CN2CCN(CC(=O)O)CCN(CC(=O)O)CCN(CC(=O)O)CC2)C(=O)O)NC(=O)[C@H](CC2CCCCC2)NC(=O)[C@H](CCC(N)=O)NC(=O)[C@H]([C@@H](C)O)NC(=O)[C@@H]2CCCN2C(=O)C2CN(C2)C1=O (stereo partly drawn) [JHDC56]

>  <RESULT VALUE>
> 8.00

$$$$
>  <MOLECULE>
CCCCNC(=O)N[C@H]1CSCc2cccc(c2)CSC[C@@H](C(=O)N[C@@H](CCC(=O)NCCCC(=O)CN2CCN(CC(=O)O)CCN(CC(=O)O)CCN(CC(=O)O)CC2)C(=O)O)NC(=O)[C@H](Cc2ccccc2)NC(=O)[C@H](CCC(N)=O)NC(=O)[C@H]([C@@H](C)O)NC(=O)[C@@H]2CCCN2C(=O)C2CN(C2)C1=O [JHDC24] ({NHBu-CO}-C[Azetidine3carboxylic]PTQFCE(X1)-OH; linker 1-7 via mXylylene)

>  <RESULT VALUE>
> 8.00

$$$$

Here is another molecule to look at.
Item CCCCNC(=O)N[C@H]1CSCc2cccc(c2)CSC[C@@H](C(=O)N[C@@H](CCC(=O)NCCCN2CCN(C(=O)CN3CCN(CC(=O)O)CCN(CC(=O)O)CCN(CC(=O)O)CC3)CC2)C(=O)O)NC(=O)[C@H](Cc2ccccc2)NC(=O)[C@H](CCC(N)=O)NC(=O)[C@H]([C@@H](C)O)NC(=O)C2CCCN2C(=O)C2CN(C2)C1=O (stereo partly drawn) [JHDC48] ({NHBu-CO}-C[Azetidine3carboxylic][ξP]TQFCE(X2)-OH; linker 1-7 via mXylylene) with fibroblast activation protein (FAP) (Homo sapiens, UniProt Q12884) - pIC50?
> 8.00

====

Target: FAP protein (Homo sapiens)
Construct: purchased Sinobiological
Sequence (Q12884 1-760): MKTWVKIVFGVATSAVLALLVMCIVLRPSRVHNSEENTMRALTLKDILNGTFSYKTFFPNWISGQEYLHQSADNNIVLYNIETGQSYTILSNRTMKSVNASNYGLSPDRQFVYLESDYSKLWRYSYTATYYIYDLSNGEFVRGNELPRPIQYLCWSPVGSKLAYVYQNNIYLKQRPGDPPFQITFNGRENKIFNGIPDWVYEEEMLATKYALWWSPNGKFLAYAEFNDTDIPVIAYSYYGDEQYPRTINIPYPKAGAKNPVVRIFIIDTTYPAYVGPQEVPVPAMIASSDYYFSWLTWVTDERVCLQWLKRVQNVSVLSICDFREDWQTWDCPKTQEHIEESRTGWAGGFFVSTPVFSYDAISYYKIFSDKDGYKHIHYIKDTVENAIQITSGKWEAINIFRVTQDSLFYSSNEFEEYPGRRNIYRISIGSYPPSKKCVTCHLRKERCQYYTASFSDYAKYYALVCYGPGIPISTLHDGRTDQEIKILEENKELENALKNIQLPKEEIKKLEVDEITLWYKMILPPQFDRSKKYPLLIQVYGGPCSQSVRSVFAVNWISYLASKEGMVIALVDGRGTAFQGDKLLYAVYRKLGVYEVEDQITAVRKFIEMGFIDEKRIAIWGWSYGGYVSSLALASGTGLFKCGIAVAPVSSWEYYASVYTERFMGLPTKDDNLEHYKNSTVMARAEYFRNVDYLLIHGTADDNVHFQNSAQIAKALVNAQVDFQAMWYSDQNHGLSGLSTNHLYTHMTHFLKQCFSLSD
Assay: Biacore test of compound affinity to FAP protein
Conditions: Biacore 8K, SA chip, 15° C., 1:1 binding model; read-out: pKD (FAP) (converted)
Protocol: The Biacore 8K (Cytiva) instrument was used to detect ligand binding of the FAP protein (Sinobiological). FAP protein was captured on the SA chip. […] The sensor surface was conditioned by injecting 1M NaCl three consecutive times in 50 mM NaOH. […] Data was evaluated using the Biacore Insight Evaluation Software, and the data were fitted to a 1:1 binding model. […]
Numbered stars: 1 amine (or outer) side, 2 acyl side, 3 side chain; on linkers, the order of the positions; unused ones are H or OH. Bridge positions count the residues as written; N and C are the ends. Square brackets hold non-standard residues; d marks the D form. Peptide text beside a SMILES is read from it. * marks the point of attachment. ξ: configuration not given here. NH(CH2)2O(CH2)2NHDOTA = O=C(O)CN1CCN(CC(=O)O)CCN(CC(=O)NCCOCCN*)CCN(CC(=O)O)CC1; NH(CH2)5NHDOTA = O=C(O)CN1CCN(CC(=O)O)CCN(CC(=O)NCCCCCN*)CCN(CC(=O)O)CC1; DOTA = O=C(O)CN1CCN(CC(=O)O)CCN(CC(=O)*)CCN(CC(=O)O)CC1; Azetidine3carboxylic = O=C(C1CN([*:1])C1)[*:2]; γGlu = O=C(O)[C@H](CCC(=O)[*:2])N[*:1]; βAsp = O=C(O)[C@H](CC(=O)[*:2])N[*:1]; mXylylene = c1cc(C[*:1])cc(C[*:2])c1; Ethylenediamine = C(CN[*:2])N[*:1]; Decanoyl = CCCCCCCCCC(=O)*; Hexanoyl = CCCCCC(=O)*; CO = O=C([*:1])[*:2]; ξP = O=C(O)C1CCCN1; ξC = NC(CS)C(=O)O; NHBu = CCCCN*
Property: Kd; scope: individual compounds

Some entries whose results are on file:
>  <COMPOUND>
CCCCNC(=O)N[C@H]1CSCc2cccc(c2)CSCC(C(=O)N[C@@H](CCC(=O)NCCCCCNC(=O)CN2CCN(CC(=O)O)CCN(CC(=O)O)CCN(CC(=O)O)CC2)C(=O)O)NC(=O)[C@H](Cc2ccccc2)NC(=O)[C@H](CCC(N)=O)NC(=O)[C@H]([C@@H](C)O)NC(=O)C2CCCN2C(=O)C2CN(C2)C1=O (stereo partly drawn) [JHDC28] ({NHBu-CO}-C[Azetidine3carboxylic][ξP]TQF[ξC]E(NH(CH2)5NHDOTA)-OH; linker 1-7 via mXylylene)

>  <Kd>
0.01 to 0.1 µM

$$$$
>  <COMPOUND>
CCCCCC(=O)N[C@H]1CSSCC(C(=O)N[C@@H](CCC(=O)NCCOCCNC(=O)CN2CCN(CC(=O)O)CCN(CC(=O)O)CCN(CC(=O)O)CC2)C(=O)O)NC(=O)[C@H](Cc2ccccc2)NC(=O)[C@H](CCC(N)=O)NC(=O)[C@H]([C@@H](C)O)NC(=O)C2CCCN2C(=O)C2CN(C2)C1=O (stereo partly drawn) [JHDC30] (Hexanoyl-C[Azetidine3carboxylic][ξP]TQF[ξC]E(NH(CH2)2O(CH2)2NHDOTA)-OH; disulfide 1-7)

>  <Kd>
0.01 to 0.1 µM

$$$$

Query: Kd; subject: CCCCCCCCCC(=O)N[C@H]1CSCc2cccc(c2)CSC[C@@H](C(=O)N[C@@H](CCC(=O)N[C@@H](CCCNC(=N)N)C(=O)NCC(=O)N[C@@H](CC(=O)NCCNC(=O)CN2CCN(CC(=O)O)CCN(CC(=O)O)CCN(CC(=O)O)CC2)C(=O)O)C(=O)O)NC(=O)[C@H](Cc2ccccc2)NC(=O)[C@H](CCC(N)=O)NC(=O)[C@H]([C@@H](C)O)NC(=O)[C@@H]2CCCN2C(=O)C2CN(C2)C1=O [JHDC18] (Decanoyl-C[Azetidine3carboxylic]PTQFC[γGlu]RG[βAsp]-{Ethylenediamine-DOTA}; linker 1-7 via mXylylene)
0.01 to 0.1 µM
